target-system: Purine nucleoside phosphorylase (Plasmodium falciparum, UniProt Q8T9Z7)
Sequence (Q8T9Z7 whole entry): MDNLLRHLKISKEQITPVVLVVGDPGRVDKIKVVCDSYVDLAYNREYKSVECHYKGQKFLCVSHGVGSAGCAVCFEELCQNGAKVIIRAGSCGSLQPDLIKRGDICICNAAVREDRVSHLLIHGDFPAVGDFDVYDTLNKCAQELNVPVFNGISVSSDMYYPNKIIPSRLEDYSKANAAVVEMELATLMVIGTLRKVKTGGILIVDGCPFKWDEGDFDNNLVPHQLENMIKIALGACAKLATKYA
metric-name: Ki

Task item: Which measured Ki value corresponds to O=c1[nH]cnc2c(CN3C[C@@H](CO)[C@H](O)C3)c[nH]c12 ?
Reply: 1.5 nM

* * *

Listed here: molecules with reported Ki for Purine nucleoside phosphorylase (Homo sapiens).
The answer is to be given in nM; state only the numeric part.

| chemical-smiles | unit-of-measurement | test-value |
| --- | --- | --- |
| Nc1nc2c([C@@H]3N[C@H](CO)[C@@H](O)[C@H]3O)c[nH]c2c(=O)[nH]1 | nM | 29 |

Let's switch to this molecule now.
Task item: Which measured Ki value corresponds to O=c1[nH]cnc2c(CN3C[C@@H](CO)[C@H](O)C3)c[nH]c12 ?
Reply: 80
